A collection of compounds and their measured JAK1 pStat6-Alexa647 Signal
# TARGET_OF_ASSAY: JAK1 (Homo sapiens, UniProt P23458)
# Construct: U-937 cells, histiocytic lymphoma cell line; endogenous in cells; host or cells: U-937 (ATCC CRL-1593.2)
# Sequence (P23458 whole entry): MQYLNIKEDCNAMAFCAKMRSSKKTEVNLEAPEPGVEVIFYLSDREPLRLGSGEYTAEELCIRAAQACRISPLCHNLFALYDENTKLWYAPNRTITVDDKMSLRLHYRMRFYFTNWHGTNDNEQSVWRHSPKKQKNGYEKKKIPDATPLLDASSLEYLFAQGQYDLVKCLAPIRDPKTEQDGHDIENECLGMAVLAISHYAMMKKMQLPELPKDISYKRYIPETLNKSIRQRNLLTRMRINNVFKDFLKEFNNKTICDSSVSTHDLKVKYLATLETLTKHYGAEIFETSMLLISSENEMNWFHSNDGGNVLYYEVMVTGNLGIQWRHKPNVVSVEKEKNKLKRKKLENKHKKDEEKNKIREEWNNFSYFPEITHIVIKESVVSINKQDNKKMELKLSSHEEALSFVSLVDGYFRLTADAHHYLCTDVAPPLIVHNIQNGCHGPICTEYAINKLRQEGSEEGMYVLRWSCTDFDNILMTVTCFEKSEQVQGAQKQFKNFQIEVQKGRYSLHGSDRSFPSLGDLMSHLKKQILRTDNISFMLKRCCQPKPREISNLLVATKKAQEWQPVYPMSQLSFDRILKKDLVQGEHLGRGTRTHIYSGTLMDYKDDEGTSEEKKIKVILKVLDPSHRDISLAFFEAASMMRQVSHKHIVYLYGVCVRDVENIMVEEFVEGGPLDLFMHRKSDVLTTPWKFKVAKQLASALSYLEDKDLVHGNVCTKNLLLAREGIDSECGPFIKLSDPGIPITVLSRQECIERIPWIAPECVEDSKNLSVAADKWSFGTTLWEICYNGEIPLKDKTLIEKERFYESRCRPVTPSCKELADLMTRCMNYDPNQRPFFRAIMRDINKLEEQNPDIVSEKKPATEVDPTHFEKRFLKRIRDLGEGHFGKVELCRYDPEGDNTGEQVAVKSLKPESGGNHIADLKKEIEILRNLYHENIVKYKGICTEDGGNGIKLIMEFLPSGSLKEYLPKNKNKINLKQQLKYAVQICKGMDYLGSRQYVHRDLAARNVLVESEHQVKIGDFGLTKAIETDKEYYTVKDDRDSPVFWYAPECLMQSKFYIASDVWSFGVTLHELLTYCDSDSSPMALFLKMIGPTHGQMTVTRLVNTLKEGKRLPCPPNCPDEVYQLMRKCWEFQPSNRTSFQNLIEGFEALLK
# PROTOCOL: JAK phosphorylation/activation by flow cytometry, pSTAT6 staining in IL-4 stimulated U-937 cells
# Format: cell-based
# STATED_CONDITIONS: drug 30 min, then IL-4

{"COMPOUND": "O=C(CCc1ccccc1)Cc1ccc(-c2ccccc2)cn1", "JAK1 pStat6-Alexa647 Signal": 14.48}
{"COMPOUND": "O=C(Cc1ccccc1)NCc1ccc(-c2ccccc2)cn1", "JAK1 pStat6-Alexa647 Signal": 13.76}
{"COMPOUND": "O=C(Cc1ccc(-c2ccccc2)cc1)NCc1cccc(F)c1 [Control A]", "JAK1 pStat6-Alexa647 Signal": 23.79}
{"COMPOUND": "O=S(=O)(Cc1ccc(Br)cc1)NCc1ccc(-c2ccccc2)cc1", "JAK1 pStat6-Alexa647 Signal": 21.47}
{"COMPOUND": "O=S(=O)(CCc1ccccc1)Cc1ccc(-c2ccccc2)cc1", "JAK1 pStat6-Alexa647 Signal": 25.08}
{"COMPOUND": "c1ccc(CCSCc2ccc(-c3ccccc3)cc2)cc1", "JAK1 pStat6-Alexa647 Signal": 17.15}
{"COMPOUND": "O=S(=O)(Cc1ccc(-c2ccccc2)cc1)NCc1ccccc1", "JAK1 pStat6-Alexa647 Signal": 28.65}
{"COMPOUND": "O=C(NCc1ccccc1)Oc1ccc(-c2ccccc2)cc1", "JAK1 pStat6-Alexa647 Signal": 31.77}
{"COMPOUND": "O=C(Cc1ccccc1)NCc1ccc(-c2ccccc2)cc1", "JAK1 pStat6-Alexa647 Signal": 29.48}
{"COMPOUND": "COc1cc2ncnc(Nc3ccc(O)cc3)c2cc1OC", "JAK1 pStat6-Alexa647 Signal": 33.80}
{"COMPOUND": "[O-][S+](CCc1ccccc1)Cc1ccc(-c2ccccc2)cc1 (centres unmarked)", "JAK1 pStat6-Alexa647 Signal": 22.03}
{"COMPOUND": "c1ccc(CNCCc2ccc(-c3ccccc3)cc2)cc1", "JAK1 pStat6-Alexa647 Signal": 18.81}
{"COMPOUND": "O=C(NCCc1ccc(-c2ccccc2)cc1)c1ccccc1", "JAK1 pStat6-Alexa647 Signal": 30.85}
{"COMPOUND": "COc1cc2ncnc(Nc3ccc(O)c(Br)c3)c2cc1OC", "JAK1 pStat6-Alexa647 Signal": 14.54}
{"COMPOUND": "O=C(NCc1ccccc1)Nc1ccc(-c2ccccc2)cn1", "JAK1 pStat6-Alexa647 Signal": 23.06}
{"COMPOUND": "O=C(Cc1ccc(-c2ccc(OCCN3CCOCC3)cc2)cn1)NCc1ccccc1 [Control B]", "JAK1 pStat6-Alexa647 Signal": 19.03}
{"COMPOUND": "O=C(Cc1ccccc1)NCc1ccc(OCc2ccccc2)cc1", "JAK1 pStat6-Alexa647 Signal": 15.35}

* * *

# TARGET_OF_ASSAY: JAK3 (Homo sapiens, UniProt P52333)
# Construct: U-937 cells, histiocytic lymphoma cell line; endogenous in cells; host or cells: U-937 (ATCC CRL-1593.2)
# Sequence (P52333 1-1124): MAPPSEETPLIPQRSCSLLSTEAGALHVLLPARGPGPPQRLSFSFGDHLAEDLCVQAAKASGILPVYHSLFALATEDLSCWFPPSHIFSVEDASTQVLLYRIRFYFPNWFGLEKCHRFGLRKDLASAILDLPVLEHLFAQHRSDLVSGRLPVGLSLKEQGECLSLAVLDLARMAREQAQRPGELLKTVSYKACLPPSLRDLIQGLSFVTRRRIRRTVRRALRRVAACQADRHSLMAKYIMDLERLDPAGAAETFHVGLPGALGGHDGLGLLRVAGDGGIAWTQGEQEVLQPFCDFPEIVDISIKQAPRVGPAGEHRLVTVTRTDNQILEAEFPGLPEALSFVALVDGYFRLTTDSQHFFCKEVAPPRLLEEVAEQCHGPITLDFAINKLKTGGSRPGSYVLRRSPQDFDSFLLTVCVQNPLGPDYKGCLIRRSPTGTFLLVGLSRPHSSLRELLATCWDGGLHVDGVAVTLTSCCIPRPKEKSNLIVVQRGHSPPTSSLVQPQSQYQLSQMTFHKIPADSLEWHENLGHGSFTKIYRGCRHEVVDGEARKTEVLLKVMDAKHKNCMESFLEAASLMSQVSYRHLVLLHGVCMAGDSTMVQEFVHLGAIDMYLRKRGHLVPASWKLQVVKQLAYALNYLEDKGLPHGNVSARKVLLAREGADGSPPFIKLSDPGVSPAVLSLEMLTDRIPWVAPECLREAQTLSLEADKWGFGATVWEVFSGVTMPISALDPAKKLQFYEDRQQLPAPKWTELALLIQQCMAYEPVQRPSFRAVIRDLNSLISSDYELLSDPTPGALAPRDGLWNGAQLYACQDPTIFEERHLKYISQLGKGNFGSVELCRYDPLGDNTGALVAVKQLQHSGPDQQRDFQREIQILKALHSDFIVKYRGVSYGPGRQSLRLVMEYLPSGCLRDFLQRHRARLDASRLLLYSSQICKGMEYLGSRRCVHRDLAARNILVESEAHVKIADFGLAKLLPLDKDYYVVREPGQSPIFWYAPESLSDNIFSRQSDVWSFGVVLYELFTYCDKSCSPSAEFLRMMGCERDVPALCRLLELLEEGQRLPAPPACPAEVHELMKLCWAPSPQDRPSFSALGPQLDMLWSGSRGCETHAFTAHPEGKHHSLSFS
# PROTOCOL: JAK phosphorylation/activation by flow cytometry, pSTAT5 staining in IL-4 stimulated U-937 cells
# Assay type: cell-based
# STATED_CONDITIONS: drug 30 min, then IL-4
A collection of compounds and their measured JAK3 pStat5-PE Signal

{"COMPOUND": "O=S(=O)(Cc1ccc(Br)cc1)NCc1ccc(-c2ccccc2)cc1", "TARGET_OF_ASSAY": "JAK3 (Homo sapiens, UniProt P52333)", "JAK3 pStat5-PE Signal": 3.66}
{"COMPOUND": "O=C(CCc1ccccc1)Cc1ccc(-c2ccccc2)cn1", "TARGET_OF_ASSAY": "JAK3 (Homo sapiens, UniProt P52333)", "JAK3 pStat5-PE Signal": 3.36}
{"COMPOUND": "c1ccc(CCSCc2ccc(-c3ccccc3)cc2)cc1", "TARGET_OF_ASSAY": "JAK3 (Homo sapiens, UniProt P52333)", "JAK3 pStat5-PE Signal": 3.48}
{"COMPOUND": "[O-][S+](CCc1ccccc1)Cc1ccc(-c2ccccc2)cc1 (centres unmarked)", "TARGET_OF_ASSAY": "JAK3 (Homo sapiens, UniProt P52333)", "JAK3 pStat5-PE Signal": 3.71}
{"COMPOUND": "COc1cc2ncnc(Nc3ccc(O)cc3)c2cc1OC", "TARGET_OF_ASSAY": "JAK3 (Homo sapiens, UniProt P52333)", "JAK3 pStat5-PE Signal": 3.19}

* * *

A collection of compounds and their measured GI50
# System: SYF/c-Src527F cell line
# PROTOCOL: Cell proliferation assay (MTT assay), GI50
# Type: cell-based
# STATED_CONDITIONS: Mus musculus, 72 h, 3 days incubation
# Experimental: The GI50s for several of the compounds of the invention are assayed as described herein. […] Cell proliferation assay (MTT assay)-HT-29 (7,000 cells) and SYF/c-Src527F (4,000 cells) cells were plated in 120 μl of culture medium per well of 96-well plate. […] Optical density (OD) at 570 nm was then measured using microplate reader and cell growth inhibition (percentage of growth) by each concentration of drug was calculated as: % growth=100×[(T−T0)/(C−T0)] […]
ASSAY_ENDPOINT: GI50

{"COMPOUND": "O=S(=O)(Cc1ccc(Br)cc1)NCc1ccc(-c2ccccc2)cc1", "OBS_VALUE": "4.9 µM"}
{"COMPOUND": "O=C(Cc1ccccc1)NCc1ccc(-c2ccccc2)cn1", "OBS_VALUE": "11.8 µM"}
{"COMPOUND": "O=C(NCc1ccccc1)Oc1ccc(-c2ccccc2)cc1", "OBS_VALUE": "7.6 µM"}
{"COMPOUND": "c1ccc(CNCCc2ccc(-c3ccccc3)cc2)cc1", "OBS_VALUE": "1.4 µM"}
{"COMPOUND": "O=C(CCc1ccccc1)Cc1ccc(-c2ccccc2)cn1", "OBS_VALUE": "20.8 µM"}
{"COMPOUND": "O=C(NCc1ccccc1)Nc1ccc(-c2ccccc2)cn1", "OBS_VALUE": "24.7 µM"}
{"COMPOUND": "O=C(Cc1ccc(-c2ccccc2)cc1)NCc1cccc(F)c1 [drawing 586]", "OBS_VALUE": "0.46 µM"}
{"COMPOUND": "O=S(=O)(CCc1ccccc1)Cc1ccc(-c2ccccc2)cc1", "OBS_VALUE": "2.2 µM"}
{"COMPOUND": "O=C(Cc1ccccc1)NCc1ccc(OCc2ccccc2)cc1", "OBS_VALUE": "275 µM"}
